# Lookup of reported inhibition at 10 µM keyed by entry
Biological target: BTK (Homo sapiens)
Assay: biochemical
Conditions: read-out: BTK inhibition (%), 0.75 uM BTK, […] probe 3l, 15 min preincubation
For clarity, give the value followed by its unit.

# count of solved cases: 5
molecule | inhibition at 10 µM
COc1cc(/C=C/C(=O)O[C@H]2[C@H](O)[C@@H](CO)O[C@@]2(CO)O[C@H]2O[C@H](CO)[C@@H](O)[C@H](O)[C@H]2O)ccc1O [PCM-0216331] | -3.1%
COc1cc(-c2cc(-c3ccc(N4CCNCC4)cc3)cnc2C)cc(OC)c1OC [PCM-0215462] | -19.3%
C=CC(=O)Nc1cccc(C)c1Nc1ncc2cc(-c3c(Cl)c(OC)cc(OC)c3Cl)ccc2n1 [PCM-0215508] | 100%
C[N+](C)(C)CCOP(=O)(O)OP(=O)([O-])OC[C@H]1O[C@@H](n2ccc(N)nc2=O)[C@H](O)[C@@H]1O [PCM-0215877] | -17.9%
O=c1cc(N2CCOCC2)oc2c(-c3ccccc3)cccc12 [PCM-0065588] | -22.1%

Notebook: pull reported inhibition at 10 µM for BTK (Homo sapiens), entry Nc1cccc2c1CN(C1CCC(=O)NC1=O)C2=O (stereo not shown) [PCM-0094938]
14.5%

Item: O=C1C[C@@H](c2ccccc2)Oc2cc(O)cc(O)c21 [PCM-0214944] Test system: BTK (Homo sapiens) Read-out: inhibition at 10 µM Value: ?
11.7%

Entry CCCCCCCC/C=C\CCCCCCCC(=O)OCC [PCM-0216145] , system BTK (Homo sapiens): what inhibition at 10 µM was measured?
6.9%

# value lookup — system BTK (Homo sapiens), readout inhibition at 10 µM, item COc1ccc(-c2ccc3cc(C(=O)O)ccc3c2)cc1C12CC3CC(CC(C3)C1)C2 [PCM-0090276]
29%

Requested read-out inhibition at 10 µM, target or system BTK (Homo sapiens), entry Cc1[nH]cnc1CN1CCc2c(c3ccccc3n2C)C1=O [PCM-0215666]
-3.4%

Entry O=C(O)CC(O)C(=O)O (stereo not shown) [PCM-0216336] , system BTK (Homo sapiens): what inhibition at 10 µM was measured?
-11.6%

Any idea what inhibition at 10 µM came out for CC(C)=CCCC(C)CCO (stereo not shown) [PCM-0216208] on BTK (Homo sapiens)?
-7.7%

Report inhibition at 10 µM for COc1cc(/C=C/C=O)ccc1O [PCM-0216477] tested on BTK (Homo sapiens).
1.5%

Query for BTK (Homo sapiens): what inhibition at 10 µM does the record show for CC[C@@H]1/C=C(\C)C[C@H](C)C[C@H](OC)[C@H]2O[C@@](O)(C(=O)C(=O)N3CCCC[C@H]3C(=O)O[C@H](/C(C)=C/[C@@H]3CC[C@H](Cl)[C@H](OC)C3)[C@H](C)[C@@H](O)CC1=O)[C@H](C)C[C@@H]2OC [PCM-0214690] ?
-13.8%

Can you look up inhibition at 10 µM on BTK (Homo sapiens) for N[C@H]1C[C@@H]1c1ccc(-c2cccc(O)c2)cc1 [PCM-0095788] ?
-1.5%

Record lookup: for BTK (Homo sapiens), what inhibition at 10 µM belongs to NS(=O)(=O)NCCNc1nonc1C(=Nc1ccc(F)c(Br)c1)NO [PCM-0215507] ?
-3.1%

###

Below, each entry is listed with its recorded inhibition at 10 µM.
Target: BTK (Homo sapiens)
Experiment: biochemical
Conditions: read-out: BTK inhibition (%), 0.75 uM BTK, […] probe 3l, 15 min preincubation
Field: numeric (%). Do not append units.

As a guide, the following entries are already answered.
cpd.smiles | inhibition at 10 µM [%]
Oc1cccc(O)c1O | -12.4
Nc1ccc(Cl)cc1C(=O)C(F)(F)F | 23.2
CC(C)(F)C[C@H](N[C@@H](c1ccc(-c2ccc(S(C)(=O)=O)cc2)cc1)C(F)(F)F)C(=O)NC1(C#N)CC1 | -23.3
C=CC(=O)Nc1cccc(Nc2nc(Nc3ccc(Oc4ccnc(C(=O)NC)c4)cc3)ncc2F)c1 | 115

Entry N#Cc1ccc(C(c2ccc(C#N)cc2)n2cncn2)cc1 , system BTK (Homo sapiens): what inhibition at 10 µM was measured?
-2.1

Hello, I am looking for reported inhibition at 10 µM with BTK (Homo sapiens) for CN1CCN(Cc2ccc(NC(=O)Nc3ccc(Oc4ccnc(N)n4)cc3)cc2C(F)(F)F)CC1 . Could you help?
31

Notebook: pull reported inhibition at 10 µM for BTK (Homo sapiens), entry CN1CC[C@H](c2c(O)cc(O)c3c(=O)cc(-c4ccccc4Cl)oc23)[C@H](O)C1
29.7

###

Listed below: inhibition at 10 µM values for each entry.
Biological target: BTK (Homo sapiens)
Test: biochemical
Conditions: read-out: BTK inhibition (%), 0.75 uM BTK, […] probe 3l, 15 min preincubation
*1 amine or outer side, *2 acyl side, *3 side chain or, on linkers, in order; H or OH if unused. Where a SMILES comes first, the peptide text is derived from it. Bridges are numbered along the chain shown (N, C = ends). Roman numbers before positions name the chains, in order. [ ]: non-standard residue; d: D form. Hexamethylenediamine = C(CCCN[*:2])CCN[*:1]; Dip = N[C@H](C(=O)O)C(c1ccccc1)c1ccccc1; Chg = N[C@H](C(=O)O)C1CCCCC1; NMeA = CN[C@@H](C)C(=O)O
Answer format: numeric, % implied, no suffix.

Completed entries (count: 8):
molecule | unit.annotation | numeric.readout
C[C@H](CSC(=O)c1ccccc1)C(=O)N1C[C@@H](Sc2ccccc2)C[C@H]1C(=O)O | % | -43.2
CC(C)(Oc1ccc(C2CC2(Cl)Cl)cc1)C(=O)O (stereo not drawn) | % | -14
O=C(O)/C=C/c1cccc(O)c1 | % | -3.1
CC(C)(C)c1nc(-c2ccc(NC(=O)Nc3cccc(C(F)(F)F)c3)c3ccccc23)c2c(N)nccn12 | % | 79.3
COc1ccc(C(=O)O)cc1O | % | -13.9
CCCCOc1ccc(C(=O)Nc2ccc(F)cc2F)cc1 | % | -5.4
COc1cc(CO)cc(OC)c1O | % | -6.2
CN[C@@H](C)C(=O)N[C@H](C(=O)N1CCC[C@H]1C(=O)N[C@H](C(=O)NCCCCCCNC(=O)[C@@H](NC(=O)[C@@H]1CCCN1C(=O)[C@@H](NC(=O)[C@H](C)NC)C1CCCCC1)C(c1ccccc1)c1ccccc1)C(c1ccccc1)c1ccccc1)C1CCCCC1 [PCM-0214574] (I: H-[NMeA][Chg]P[Dip] / II: H-[NMeA][Chg]P[Dip]; linker I:C-II:C via Hexamethylenediamine) | % | -1.5

Name the recorded inhibition at 10 µM for C#Cc1cccc(Nc2ncnc3cc(OCCOC)c(OCCO)cc23)c1 .
31

###

Target: BTK (Homo sapiens, UniProt Q06187)
Sequence (Q06187 402-655 limits assumed): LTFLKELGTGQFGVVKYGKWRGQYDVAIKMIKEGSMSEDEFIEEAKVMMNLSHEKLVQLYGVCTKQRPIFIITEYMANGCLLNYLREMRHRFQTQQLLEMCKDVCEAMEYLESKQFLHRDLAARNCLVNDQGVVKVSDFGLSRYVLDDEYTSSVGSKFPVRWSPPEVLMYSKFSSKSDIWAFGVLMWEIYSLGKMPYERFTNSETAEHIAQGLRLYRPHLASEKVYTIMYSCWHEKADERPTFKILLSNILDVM
Experiment: biochemical
Details: read-out: BTK inhibition (%), 0.75 uM BTK, […] probe 3l, 15 min preincubation
measured.attribute: inhibition at 10 µM (%)
Enter your answer as a number in %; do not include the unit.

molecule | inhibition at 10 µM / %
CCCCCCCCCCCCCCCCCCOP(=O)([O-])OC1CC[N+](C)(C)CC1 [PCM-0215183] | -46.8

Now, please, on to the next molecule.
Endpoint output: inhibition at 10 µM of CC(C)(C)c1cc(C=C(C#N)C#N)cc(C(C)(C)C)c1O [PCM-0064935] . Value?
15.2

###

Target: BTK (Homo sapiens, UniProt Q06187)
Test: biochemical
Conditions: read-out: BTK inhibition (%), 0.75 uM BTK, […] probe 3l, 15 min preincubation
measured.attribute: inhibition at 10 µM (%)
Write the value in % as a bare number.

// map C[Si](C)(C)CCOCn1ccc2c(-c3cn[nH]c3)ncnc21 [PCM-0216552] to recorded inhibition at 10 µM (system: BTK (Homo sapiens, UniProt Q06187))
-40.9

Entry CN1CCN(CCOc2cc(OC3CCOCC3)c3c(Nc4c(Cl)ccc5c4OCO5)ncnc3c2)CC1 [PCM-0094889] , system BTK (Homo sapiens, UniProt Q06187): what inhibition at 10 µM was measured?
59.3

Can you look up inhibition at 10 µM on BTK (Homo sapiens, UniProt Q06187) for O=C(Oc1coc(CSc2ncccn2)cc1=O)c1ccc([N+](=O)[O-])cc1 [PCM-0216050] ?
-3.9

###

Target: UniProtKB Q06187
Assay: biochemical
Details: read-out: BTK inhibition (%), 0.75 uM BTK, […] probe 3l, 15 min preincubation
// inhibition at 10 µM lookup, one value per entry
Report only the number, with the unit % understood.

compound | inhibition at 10 µM / %
C=CC(=O)Nc1cc(Nc2nccc(-c3c[nH]c4ccccc34)n2)c(OC)cc1N(C)CCN(C)C [PCM-0215489] | 91.7

Find the recorded inhibition at 10 µM belonging to COc1cc2c(cc1OC)CC(=O)N(CCCN(C)C[C@H]1Cc3cc(OC)c(OC)cc31)CC2 [PCM-0095255] and report it.
-3.1

For Cc1ccc(S(=O)(=O)OCC(=O)Nc2ccc(C(=O)O)c(O)c2)cc1 [PCM-0094985] , what is its reported inhibition at 10 µM?
29.6

What does the data say about its inhibition at 10 µM? Entry: Nc1ccc(O)c(C(=O)O)c1 [PCM-0086222]
-9

Could you share which inhibition at 10 µM value was measured for COc1ccc(Cl)cc1C(=O)NCCc1ccc(S(=O)(=O)NC(=O)NC2CCCCC2)cc1 [PCM-0003840] ?
-65.4

Recorded inhibition at 10 µM of c1ccc2c(CC3=NCCN3)cccc2c1 [PCM-0085846] , please.
-13.2
